target: filamentous actin (F-actin) from rabbit skeletal muscle (rabbit, UniProt P68135 1-377); assay: BLI; F-actin immobilised on Streptavidin (SA) biosensors through LAbio peptide; αcat-ABD in solution at various concentrations; 26 °C, Octet384; 2 mM Tris-HCl pH 8.0, 0.2 mM ATP, 0.5 mM DTT, 0.1 mM CaCl2, 50 mM KCl, 2 mM MgCl2, 0.1% BSA, 0.02% Tween-20; 2:1 heterogeneous ligand model; details: both partners purified
Parameter: kon1 (2:1 heterogeneous ligand model) (M⁻¹ s⁻¹)
Give the value, in units of M⁻¹ s⁻¹, as a plain number.

Here is how some binders turned out for kon1 (2:1 heterogeneous ligand model).
[[record]]
binder = "αEcat-ABD 3A (L785A, I792A and V796A together) (domain or fragment, source: E. coli BL21-CodonPlus, purified (glutathione-sepharose, thrombin cleavage, Superdex 75); not shown: GST, N-terminal, cleaved) SRTSVQTEDDQLIAGQSARAIMAQLPQEQKAKIAEQVASFQEEKSKLDAEVSKWDDSGNDIIVLAKQMCMIMMEMTDFTRGKGPLKNTSDVISAAKKIAEAGSRMDKLGRTIADHCPDSACKQDLLAYLQRIAAYCHQLNACSKAKAEVQNLGGELVVSGVDSAMSLIQAAKNLMNAVVQTVKASYVASTKYQKSQGMASLNLPAVSWKMKAPEKKPLVKREKQDETQTKIKRASQKKHVNPVQALSEFKAMDSI"
readout_value = 20800

[[record]]
binder = "αE-catenin actin-binding domain, wild type (αEcat-ABD-WT; residues 652-906) (domain or fragment, source: E. coli BL21-CodonPlus, purified (glutathione-sepharose, thrombin cleavage, Superdex 75); not shown: GST, N-terminal, cleaved) SRTSVQTEDDQLIAGQSARAIMAQLPQEQKAKIAEQVASFQEEKSKLDAEVSKWDDSGNDIIVLAKQMCMIMMEMTDFTRGKGPLKNTSDVISAAKKIAEAGSRMDKLGRTIADHCPDSACKQDLLAYLQRIALYCHQLNICSKVKAEVQNLGGELVVSGVDSAMSLIQAAKNLMNAVVQTVKASYVASTKYQKSQGMASLNLPAVSWKMKAPEKKPLVKREKQDETQTKIKRASQKKHVNPVQALSEFKAMDSI"
readout_value = 234000

[[record]]
binder = "αEcat-ABD L785A (domain or fragment, source: E. coli BL21-CodonPlus, purified (glutathione-sepharose, thrombin cleavage, Superdex 75); not shown: GST, N-terminal, cleaved) SRTSVQTEDDQLIAGQSARAIMAQLPQEQKAKIAEQVASFQEEKSKLDAEVSKWDDSGNDIIVLAKQMCMIMMEMTDFTRGKGPLKNTSDVISAAKKIAEAGSRMDKLGRTIADHCPDSACKQDLLAYLQRIAAYCHQLNICSKVKAEVQNLGGELVVSGVDSAMSLIQAAKNLMNAVVQTVKASYVASTKYQKSQGMASLNLPAVSWKMKAPEKKPLVKREKQDETQTKIKRASQKKHVNPVQALSEFKAMDSI"
readout_value = 24900


Okay, now this binder:
QUERY: Complete the entry with kon1 (2:1 heterogeneous ligand model) for αEcat-ABD I792A (domain or fragment, source: E. coli BL21-CodonPlus, purified (glutathione-sepharose, thrombin cleavage, Superdex 75); not shown: GST, N-terminal, cleaved) SRTSVQTEDDQLIAGQSARAIMAQLPQEQKAKIAEQVASFQEEKSKLDAEVSKWDDSGNDIIVLAKQMCMIMMEMTDFTRGKGPLKNTSDVISAAKKIAEAGSRMDKLGRTIADHCPDSACKQDLLAYLQRIALYCHQLNACSKVKAEVQNLGGELVVSGVDSAMSLIQAAKNLMNAVVQTVKASYVASTKYQKSQGMASLNLPAVSWKMKAPEKKPLVKREKQDETQTKIKRASQKKHVNPVQALSEFKAMDSI
RESULT: 234000

src = paper PMC6269467
